- Protocol Details: Hydrolysis half life in CEM cell extracts at pH 6.9
- Type: ADME
- Applied Conditions: human, CEM (CCRF-CEM) cell extracts
Measured Property: half-life
Output should be the measured figure followed by the unit it is expressed in.

Query CC(=O)OC(OC(C)=O)c1ccc2c(c1)COP(=O)(OC[C@@H]1C=C[C@H](n3cc(C)c(=O)[nH]c3=O)O1)O2 (stereo partly specified) yields half-life of 4.8 min

Query CC(=O)OC(OC(C)=O)c1cc2c(c(C(C)(C)C)c1)OP(=O)(OC[C@@H]1C=C[C@H](n3cc(C)c(=O)[nH]c3=O)O1)OC2 (stereo partly specified) yields half-life of 7.2 min

Query CC(=O)OC(OC(C)=O)c1cc(C)c2c(c1)COP(=O)(OC[C@@H]1C=C[C@H](n3cc(C)c(=O)[nH]c3=O)O1)O2 (stereo partly specified) yields half-life of 4.8 min

Query Cc1cccc2c1OP(=O)(OC[C@@H]1C=C[C@H](n3cc(C)c(=O)[nH]c3=O)O1)OC2 (stereo partly specified) yields half-life of 870 min

Query Cc1cn([C@H]2C=C[C@@H](COP3(=O)OCc4cc(CCC(=O)OCOC(=O)C(C)C)ccc4O3)O2)c(=O)[nH]c1=O (stereo partly specified) yields half-life of 54 min

Query Cc1cn([C@H]2C=C[C@@H](COP3(=O)OCc4cc(CCC(=O)OCOC(=O)C(C)(C)C)ccc4O3)O2)c(=O)[nH]c1=O (stereo partly specified) yields half-life of 22.8 min

* * *

Provide the recorded half-life for the entries that follow.
- Protocol Details: Hydrolysis half life in […]/FCS medium at pH 7.6
- Format: ADME
- Applied Conditions: cattle, RPMI-1650/FCS culture medium
Expressed in h, but write only the number.

Query CC(=O)OC(OC(C)=O)c1cc(C)c2c(c1)COP(=O)(OC[C@@H]1C=C[C@H](n3cc(C)c(=O)[nH]c3=O)O1)O2 (stereo partly drawn) yields half-life of 1.5

Query CC(=O)OC(OC(C)=O)c1cc2c(c(C(C)(C)C)c1)OP(=O)(OC[C@@H]1C=C[C@H](n3cc(C)c(=O)[nH]c3=O)O1)OC2 (stereo partly drawn) yields half-life of 4.7

Query CC(=O)OC(OC(C)=O)c1ccc2c(c1)COP(=O)(OC[C@@H]1C=C[C@H](n3cc(C)c(=O)[nH]c3=O)O1)O2 (stereo partly drawn) yields half-life of 0.9

* * *

- Protocol Details: Hydrolysis half life in human serum at pH 6.8
- Assay type: ADME, cell-free
Provide the recorded half-life for the entries that follow.
Expressed in h, but write only the number.

Query CC(=O)OC(OC(C)=O)c1cc2c(c(C(C)(C)C)c1)OP(=O)(OC[C@@H]1C=C[C@H](n3cc(C)c(=O)[nH]c3=O)O1)OC2 (stereo partly drawn) yields half-life of 8.7

Query CC(=O)OC(OC(C)=O)c1ccc2c(c1)COP(=O)(OC[C@@H]1C=C[C@H](n3cc(C)c(=O)[nH]c3=O)O1)O2 (stereo partly drawn) yields half-life of 1.5

Query CC(=O)OC(OC(C)=O)c1cc(C)c2c(c1)COP(=O)(OC[C@@H]1C=C[C@H](n3cc(C)c(=O)[nH]c3=O)O1)O2 (stereo partly drawn) yields half-life of 3.6

* * *

Provide the recorded EC50 for the entries that follow.
- Test system: Human immunodeficiency virus 2
- Protocol Details: Antiviral activity against HIV2 ROD in CEM/0 cells
- Format: functional, organism-based
- Applied Conditions: Human immunodeficiency virus 2, ROD, CCRF-CEM
Expressed in nM, but write only the number.

Query CC(=O)OC(OC(C)=O)c1ccc2c(c1)COP(=O)(OC[C@@H]1C=C[C@H](n3cc(C)c(=O)[nH]c3=O)O1)O2 (stereo partly drawn) yields EC50 of 400

Query Cc1cn([C@H]2C=C[C@@H](COP3(=O)OCc4cc(C=O)ccc4O3)O2)c(=O)[nH]c1=O (stereo partly drawn) yields EC50 of 150

Query Cc1cn([C@H]2C=C[C@@H](COP3(=O)OCc4cc(CCC(=O)OCOC(=O)C(C)C)ccc4O3)O2)c(=O)[nH]c1=O (stereo partly drawn) yields EC50 of 600

* * *

- Protocol Details: Chemical stability in phosphate buffer at pH 7.3
- Assay type: physicochemical
Provide the recorded half-life for the entries that follow.
Expressed in h, but write only the number.

Query Cc1cn([C@H]2C=C[C@@H](COP3(=O)OCc4cc(CCC(=O)OCOC(=O)C(C)(C)C)ccc4O3)O2)c(=O)[nH]c1=O (stereo partly specified) yields half-life of 5.6

Query Cc1cn([C@H]2C=C[C@@H](COP3(=O)OCc4cc(C=O)ccc4O3)O2)c(=O)[nH]c1=O (stereo partly specified) yields half-life of 0.18

Query Cc1cn([C@H]2C=C[C@@H](COP3(=O)OCc4cccc(C(C)(C)C)c4O3)O2)c(=O)[nH]c1=O (stereo partly specified) yields half-life of 73

Query Cc1cn([C@H]2C=C[C@@H](COP3(=O)OCc4cc(Br)ccc4O3)O2)c(=O)[nH]c1=O (stereo partly specified) yields half-life of 0.88

Query Cc1cccc2c1OP(=O)(OC[C@@H]1C=C[C@H](n3cc(C)c(=O)[nH]c3=O)O1)OC2 (stereo partly specified) yields half-life of 17.5

Query CC(=O)OC(OC(C)=O)c1ccc2c(c1)COP(=O)(OC[C@@H]1C=C[C@H](n3cc(C)c(=O)[nH]c3=O)O1)O2 (stereo partly specified) yields half-life of 1.2

Query Cc1cn([C@H]2C=C[C@@H](COP3(=O)OCc4cc(CCC(=O)OCOC(=O)C(C)C)ccc4O3)O2)c(=O)[nH]c1=O (stereo partly specified) yields half-life of 3.9

Query Cc1cn([C@H]2C=C[C@@H](COP3(=O)OCc4cc(C=O)cc(C(C)(C)C)c4O3)O2)c(=O)[nH]c1=O (stereo partly specified) yields half-life of 0.95

Query CC(=O)OC(OC(C)=O)c1cc2c(c(C(C)(C)C)c1)OP(=O)(OC[C@@H]1C=C[C@H](n3cc(C)c(=O)[nH]c3=O)O1)OC2 (stereo partly specified) yields half-life of 7

Query Cc1cc(C=O)cc2c1OP(=O)(OC[C@@H]1C=C[C@H](n3cc(C)c(=O)[nH]c3=O)O1)OC2 (stereo partly specified) yields half-life of 0.35

Query CC(=O)OC(OC(C)=O)c1cc(C)c2c(c1)COP(=O)(OC[C@@H]1C=C[C@H](n3cc(C)c(=O)[nH]c3=O)O1)O2 (stereo partly specified) yields half-life of 2.3

* * *

Provide the recorded pEC50 for the entries that follow.
- Tested on: Human immunodeficiency virus 2
- Protocol Details: Antiviral activity against HIV2 ROD in CEM/0 cells
- Type: functional, organism-based
- Applied Conditions: Human immunodeficiency virus 2, ROD, CCRF-CEM
On this scale, pEC50 is minus log10 of a concentration expressed in M (mol/L).

Query Cc1cn([C@H]2C=C[C@@H](COP3(=O)OCc4cc([N+](=O)[O-])ccc4O3)O2)c(=O)[nH]c1=O (stereo partly drawn) yields pEC50 of 6.40

Query CC(=O)OC(OC(C)=O)c1cc2c(c(C(C)(C)C)c1)OP(=O)(OC[C@@H]1C=C[C@H](n3cc(C)c(=O)[nH]c3=O)O1)OC2 (stereo partly drawn) yields pEC50 of 6.12

Query Cc1cccc2c1OP(=O)(OC[C@@H]1C=C[C@H](n3cc(C)c(=O)[nH]c3=O)O1)OC2 (stereo partly drawn) yields pEC50 of 7.15

Query Cc1cn([C@H]2C=C[C@@H](COP3(=O)OCc4cc(Br)ccc4O3)O2)c(=O)[nH]c1=O (stereo partly drawn) yields pEC50 of 6.59

Query Cc1cn([C@H]2C=C[C@@H](COP3(=O)OCc4cc(CCC(=O)OCOC(=O)C(C)(C)C)ccc4O3)O2)c(=O)[nH]c1=O (stereo partly drawn) yields pEC50 of 6.48

Query Cc1cn([C@H]2C=C[C@@H](COP3(=O)OCc4cc(C=O)cc(C(C)(C)C)c4O3)O2)c(=O)[nH]c1=O (stereo partly drawn) yields pEC50 of 6.22

Query Cc1cn([C@H]2C=C[C@@H](CO)O2)c(=O)[nH]c1=O [STAVUDINE] yields pEC50 of 6.20

Query Cc1cn([C@H]2C=C[C@@H](COP3(=O)OCc4cccc(C(C)(C)C)c4O3)O2)c(=O)[nH]c1=O (stereo partly drawn) yields pEC50 of 6.19
